- Tested on: ZEB2
- Assay notes: 3' UTR reporter interaction score (median-centred robust z-score of log2 firefly/Renilla activity); higher = less repression of the 3' UTR reporter
- Recorded conditions: HEK293T; 48 h
Property name: 3' UTR reporter interaction score
Lab note: record the figure alone, no unit after it.

Record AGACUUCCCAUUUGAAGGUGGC . Reported 3' UTR reporter interaction score: 0.705

Record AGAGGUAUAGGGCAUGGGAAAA . Reported 3' UTR reporter interaction score: 1.12

Record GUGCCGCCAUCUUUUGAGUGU . Reported 3' UTR reporter interaction score: -1.72

Record GUGUCUGCUUCCUGUGGGA . Reported 3' UTR reporter interaction score: 0.24

Record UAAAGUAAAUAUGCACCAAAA . Reported 3' UTR reporter interaction score: -0.265

Record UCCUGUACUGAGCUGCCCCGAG . Reported 3' UTR reporter interaction score: -2.27

Record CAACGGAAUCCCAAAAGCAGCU . Reported 3' UTR reporter interaction score: 0.375

Record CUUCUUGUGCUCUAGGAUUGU . Reported 3' UTR reporter interaction score: 0.0232

Record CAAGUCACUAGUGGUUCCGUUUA . Reported 3' UTR reporter interaction score: 1.99

Record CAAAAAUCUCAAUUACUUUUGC . Reported 3' UTR reporter interaction score: -0.266

----------
Field: 3' UTR reporter interaction score. Provide a value for each of the sequences that follow.
- Tested on: FBXW7
- Assay notes: 3' UTR reporter interaction score (median-centred robust z-score of log2 firefly/Renilla activity); higher = less repression of the 3' UTR reporter
- Recorded conditions: HEK293T; 48 h

Record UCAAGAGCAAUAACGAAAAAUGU . Reported 3' UTR reporter interaction score: 0.698

Record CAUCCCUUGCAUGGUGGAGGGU . Reported 3' UTR reporter interaction score: -2.06

Record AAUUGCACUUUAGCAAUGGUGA . Reported 3' UTR reporter interaction score: -4.25

Record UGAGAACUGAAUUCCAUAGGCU . Reported 3' UTR reporter interaction score: -1.39

Record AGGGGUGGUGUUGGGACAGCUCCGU . Reported 3' UTR reporter interaction score: 0.925

Record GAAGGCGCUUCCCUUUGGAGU . Reported 3' UTR reporter interaction score: 0.348

Record UGGGCGUAUCUGUAUGCUA . Reported 3' UTR reporter interaction score: 0.752

----------
- Test system: BRCA2
- Assay notes: 3' UTR reporter interaction score (median-centred robust z-score of log2 firefly/Renilla activity); higher = less repression of the 3' UTR reporter
- Recorded conditions: HEK293T; 48 h
Binary call on 3' UTR reporter interaction score: fulfilled from 0.02 upward, not fulfilled beneath that.

Q: Given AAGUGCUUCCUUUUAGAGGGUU , state whether its 3' UTR reporter interaction score is at least 0.02.
Ans: not fulfilled

Q: Given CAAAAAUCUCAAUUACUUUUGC , state whether its 3' UTR reporter interaction score is at least 0.02.
Ans: not fulfilled

Q: Given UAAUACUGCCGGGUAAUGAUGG , state whether its 3' UTR reporter interaction score is at least 0.02.
Ans: not fulfilled

Q: Given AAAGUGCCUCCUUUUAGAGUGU , state whether its 3' UTR reporter interaction score is at least 0.02.
Ans: not fulfilled

Q: Given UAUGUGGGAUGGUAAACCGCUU , state whether its 3' UTR reporter interaction score is at least 0.02.
Ans: not fulfilled

Q: Given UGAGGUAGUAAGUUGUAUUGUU , state whether its 3' UTR reporter interaction score is at least 0.02.
Ans: fulfilled

Q: Given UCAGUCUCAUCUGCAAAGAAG , state whether its 3' UTR reporter interaction score is at least 0.02.
Ans: not fulfilled

Q: Given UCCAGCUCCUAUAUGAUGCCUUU , state whether its 3' UTR reporter interaction score is at least 0.02.
Ans: fulfilled

Q: Given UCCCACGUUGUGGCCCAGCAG , state whether its 3' UTR reporter interaction score is at least 0.02.
Ans: fulfilled

Q: Given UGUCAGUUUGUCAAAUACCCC , state whether its 3' UTR reporter interaction score is at least 0.02.
Ans: not fulfilled

Q: Given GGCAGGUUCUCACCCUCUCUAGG , state whether its 3' UTR reporter interaction score is at least 0.02.
Ans: not fulfilled

Q: Given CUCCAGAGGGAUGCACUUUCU , state whether its 3' UTR reporter interaction score is at least 0.02.
Ans: not fulfilled

Q: Given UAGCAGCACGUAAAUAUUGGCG , state whether its 3' UTR reporter interaction score is at least 0.02.
Ans: not fulfilled

Q: Given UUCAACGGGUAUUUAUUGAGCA , state whether its 3' UTR reporter interaction score is at least 0.02.
Ans: fulfilled

Q: Given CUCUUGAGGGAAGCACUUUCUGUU , state whether its 3' UTR reporter interaction score is at least 0.02.
Ans: fulfilled

Q: Given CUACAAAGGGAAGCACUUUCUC , state whether its 3' UTR reporter interaction score is at least 0.02.
Ans: not fulfilled

Q: Given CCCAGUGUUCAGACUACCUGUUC , state whether its 3' UTR reporter interaction score is at least 0.02.
Ans: fulfilled

Q: Given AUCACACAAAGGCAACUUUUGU , state whether its 3' UTR reporter interaction score is at least 0.02.
Ans: not fulfilled

Q: Given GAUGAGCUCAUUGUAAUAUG , state whether its 3' UTR reporter interaction score is at least 0.02.
Ans: not fulfilled

Q: Given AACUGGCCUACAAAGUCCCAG , state whether its 3' UTR reporter interaction score is at least 0.02.
Ans: not fulfilled

Q: Given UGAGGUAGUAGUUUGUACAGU , state whether its 3' UTR reporter interaction score is at least 0.02.
Ans: fulfilled

Q: Given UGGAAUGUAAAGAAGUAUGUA , state whether its 3' UTR reporter interaction score is at least 0.02.
Ans: fulfilled

Q: Given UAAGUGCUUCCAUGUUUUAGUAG , state whether its 3' UTR reporter interaction score is at least 0.02.
Ans: not fulfilled

Q: Given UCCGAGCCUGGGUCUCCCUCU , state whether its 3' UTR reporter interaction score is at least 0.02.
Ans: fulfilled

Q: Given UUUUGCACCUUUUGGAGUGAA , state whether its 3' UTR reporter interaction score is at least 0.02.
Ans: fulfilled

Q: Given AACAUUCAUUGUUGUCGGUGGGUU , state whether its 3' UTR reporter interaction score is at least 0.02.
Ans: not fulfilled

Q: Given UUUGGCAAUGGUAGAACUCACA , state whether its 3' UTR reporter interaction score is at least 0.02.
Ans: not fulfilled

Q: Given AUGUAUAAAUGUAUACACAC , state whether its 3' UTR reporter interaction score is at least 0.02.
Ans: fulfilled

Q: Given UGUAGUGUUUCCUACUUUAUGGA , state whether its 3' UTR reporter interaction score is at least 0.02.
Ans: not fulfilled

Q: Given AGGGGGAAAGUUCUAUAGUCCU , state whether its 3' UTR reporter interaction score is at least 0.02.
Ans: not fulfilled

Q: Given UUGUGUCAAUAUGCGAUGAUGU , state whether its 3' UTR reporter interaction score is at least 0.02.
Ans: not fulfilled

Q: Given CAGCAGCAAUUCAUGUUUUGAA , state whether its 3' UTR reporter interaction score is at least 0.02.
Ans: fulfilled

Q: Given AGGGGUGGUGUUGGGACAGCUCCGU , state whether its 3' UTR reporter interaction score is at least 0.02.
Ans: not fulfilled

Q: Given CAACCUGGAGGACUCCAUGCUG , state whether its 3' UTR reporter interaction score is at least 0.02.
Ans: fulfilled

Q: Given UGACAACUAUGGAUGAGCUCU , state whether its 3' UTR reporter interaction score is at least 0.02.
Ans: not fulfilled

Q: Given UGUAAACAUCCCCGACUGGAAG , state whether its 3' UTR reporter interaction score is at least 0.02.
Ans: not fulfilled

Q: Given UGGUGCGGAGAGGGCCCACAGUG , state whether its 3' UTR reporter interaction score is at least 0.02.
Ans: not fulfilled

Q: Given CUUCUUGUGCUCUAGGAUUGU , state whether its 3' UTR reporter interaction score is at least 0.02.
Ans: not fulfilled

Q: Given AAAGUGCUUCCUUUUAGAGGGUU , state whether its 3' UTR reporter interaction score is at least 0.02.
Ans: not fulfilled

Q: Given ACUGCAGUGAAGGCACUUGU , state whether its 3' UTR reporter interaction score is at least 0.02.
Ans: fulfilled

Q: Given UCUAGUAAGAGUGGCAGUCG , state whether its 3' UTR reporter interaction score is at least 0.02.
Ans: fulfilled

Q: Given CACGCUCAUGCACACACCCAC , state whether its 3' UTR reporter interaction score is at least 0.02.
Ans: fulfilled

Q: Given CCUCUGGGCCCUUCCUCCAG , state whether its 3' UTR reporter interaction score is at least 0.02.
Ans: fulfilled

Q: Given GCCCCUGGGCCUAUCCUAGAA , state whether its 3' UTR reporter interaction score is at least 0.02.
Ans: fulfilled

Q: Given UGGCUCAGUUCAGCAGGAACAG , state whether its 3' UTR reporter interaction score is at least 0.02.
Ans: fulfilled

Q: Given UGCUUCCUUUCAGAGGGU , state whether its 3' UTR reporter interaction score is at least 0.02.
Ans: not fulfilled

Q: Given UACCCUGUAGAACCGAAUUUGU , state whether its 3' UTR reporter interaction score is at least 0.02.
Ans: fulfilled

Q: Given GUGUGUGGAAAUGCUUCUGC , state whether its 3' UTR reporter interaction score is at least 0.02.
Ans: not fulfilled

Q: Given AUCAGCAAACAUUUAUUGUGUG , state whether its 3' UTR reporter interaction score is at least 0.02.
Ans: fulfilled

Q: Given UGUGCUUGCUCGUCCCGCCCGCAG , state whether its 3' UTR reporter interaction score is at least 0.02.
Ans: fulfilled

Q: Given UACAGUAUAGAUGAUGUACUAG , state whether its 3' UTR reporter interaction score is at least 0.02.
Ans: not fulfilled

Q: Given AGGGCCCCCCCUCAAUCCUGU , state whether its 3' UTR reporter interaction score is at least 0.02.
Ans: fulfilled

Q: Given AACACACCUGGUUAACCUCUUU , state whether its 3' UTR reporter interaction score is at least 0.02.
Ans: fulfilled

Q: Given UCUAGGCUGGUACUGCUGA , state whether its 3' UTR reporter interaction score is at least 0.02.
Ans: not fulfilled

Q: Given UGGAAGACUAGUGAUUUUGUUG , state whether its 3' UTR reporter interaction score is at least 0.02.
Ans: not fulfilled

Q: Given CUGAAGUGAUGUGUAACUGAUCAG , state whether its 3' UTR reporter interaction score is at least 0.02.
Ans: not fulfilled

Q: Given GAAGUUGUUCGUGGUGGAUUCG , state whether its 3' UTR reporter interaction score is at least 0.02.
Ans: fulfilled

Q: Given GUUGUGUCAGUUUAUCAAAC , state whether its 3' UTR reporter interaction score is at least 0.02.
Ans: not fulfilled
